Listed here are binders together with their documented pIC50.
TARGET_OR_SYSTEM: T1, Human PDGF-BB (human, UniProt P01127 82-190)
T1 construct: Dimer of two B chains; also called hPDGF-BB; huPDGF-BB
T1 sequence (P01127 82-190 limits assumed): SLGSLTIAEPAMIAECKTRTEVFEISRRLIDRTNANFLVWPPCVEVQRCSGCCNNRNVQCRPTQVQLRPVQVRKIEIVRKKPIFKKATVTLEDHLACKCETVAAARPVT
TEST: competition ELISA: antibody pre-incubated with hPDGF-BB-biotin, binding to coated hPDGF-Rβ-Fc
Protocol: Plates were then washed four times with wash buffer (TBS, 0.05% Tween-20) and blocked with Superblock blocking buffer (Thermo Scientific, cat#37535). […] The reaction was stopped with 2N sulfuric acid (VWR, cat# BDH3500-1) and the absorbance was read at 450 nm-570 nm. […] Data was analyzed using Softmax Pro 4.8 software and IC₅₀ values calculated using a sigmoidal dose response (variable slope) fit in GraphPad Prism 5. Potency was evaluated in both cell-based and ELISA formats.
Units for pIC50: none; it is -log10 of a concentration expressed in mol/L.

{"columns": ["BINDER", "pIC50"],
 "data": [
  ["CL-33803-IgG (antibody, V domains shown) VH: EVTLRESGPALVKPTQTLTLTCTFSGFSLSTYGMGVGWIRQPPGKALEWLANIWWDDDKYYNPSLKNRLTISKDTSKNQVVLTMTNMDPVDTATYYCARIESLPTSYSFDYWGQGTMVTVSS VL: EIVLTQSPGTLSLSPGERATLSCERSSGDIWDTYVSWYQQKPGQAPRLLIYADDQRPSGIPDRFSGSGSGTDFTLTISRLEPEDFAVYYCQSYDIIIDIVFGGGTKVEIK", 10.36]
]}

GET /values?readout=pIC50&item= CL-33820-IgG (antibody, V domains shown) VH: EVTLRESGPALVKPTQTLTLTCTFSGFSLSTYGMGVGWIRQPPGKALEWLANIWWDDDKYYNPSLKNRLTISKDTSKNQVVLTMTNMDPVDTATYYCARIESSFTSYSFDYWGQGTMVTVSS VL: EIVLTQSPGTLSLSPGERATLSCKRSSGSIYDTYVSWYQQKPGQAPRLVIYSDDQRPSGIPDRFSGSGSGTDFTLTISRLEPEDFAVYYCQSYDLTIDITFGGGTKVEIK 10.18

And for CL-33811-IgG (antibody, V domains shown) VH: EVTLRESGPALVKPTQTLTLTCTFSGFSLSTYGMGVGWIRQPPGKALEWLANIWWDDDKYYNPSLKNRLTISKDTSKNQVVLTMTNMDPVDTATYYCARIESSWTTYSFDYWGQGTMVTVSS VL: EIVLTQSPGTLSLSPGERATLSCERSSGSIWHSYVSWYQQKPGQAPRLLIYSDDQRATGIPDRFSGSGSGTDFTLTISRLEPEDFAVYYCQSYGIYIDVVFGGGTKVEIK ? 10.00
